# Tested on: TNF-α synthesis in J744A.1 macrophages
# Test summary: inhibition of TNF-α synthesis in LPS-activated macrophages (ELISA)
# Assay type: cell-based
# Condition description: Macrophage; 10 μM compound, 100 ng/ml LPS, 6 hours; read-out: Inhibition (%) of TNF-α synthesis
So basically: inhibition at 10 µM at 70% or higher? That is TRUE. Lower than 70%? That is FALSE.

>  <Compound>
Cl.Oc1cccc(Nc2ncnc3cc(-c4ccc(CN5CCC(O)C5)cc4)sc23)c1 (stereo not drawn)

>  <Group>
FALSE

$$$$
>  <Compound>
CC1CCN(Cc2ccc(-c3cc4ncnc(Nc5cccc(O)c5)c4s3)cc2)CC1

>  <Group>
FALSE

$$$$
>  <Compound>
CCN(CC)Cc1cccc(-c2cc3ncnc(Nc4cccc(O)c4)c3s2)c1.Cl

>  <Group>
TRUE

$$$$
>  <Compound>
OCC1CCCN1Cc1ccc(-c2cc3ncnc(Nc4cccc(O)c4)c3s2)cc1 (stereo not drawn)

>  <Group>
FALSE

$$$$
>  <Compound>
Oc1cccc(Nc2ncnc3cc(-c4ccoc4)sc23)c1

>  <Group>
TRUE

$$$$
>  <Compound>
Oc1cccc(Nc2ncnc3cc(-c4ccccc4)sc23)c1

>  <Group>
FALSE

$$$$

Could you tell me if the measured inhibition at 10 µM of CCN(CC)Cc1ccc(-c2cc3ncnc(Nc4cccc(O)c4)c3s2)cc1 reaches 70% or more?
TRUE

Could you tell me if the measured inhibition at 10 µM of Cl.Oc1cccc(Nc2ncnc3cc(-c4cccc(CN5CCCC5)c4)sc23)c1 reaches 70% or more?
TRUE

* * *

# Tested system: UniProt:P09769
# Sequence (P09769 whole entry): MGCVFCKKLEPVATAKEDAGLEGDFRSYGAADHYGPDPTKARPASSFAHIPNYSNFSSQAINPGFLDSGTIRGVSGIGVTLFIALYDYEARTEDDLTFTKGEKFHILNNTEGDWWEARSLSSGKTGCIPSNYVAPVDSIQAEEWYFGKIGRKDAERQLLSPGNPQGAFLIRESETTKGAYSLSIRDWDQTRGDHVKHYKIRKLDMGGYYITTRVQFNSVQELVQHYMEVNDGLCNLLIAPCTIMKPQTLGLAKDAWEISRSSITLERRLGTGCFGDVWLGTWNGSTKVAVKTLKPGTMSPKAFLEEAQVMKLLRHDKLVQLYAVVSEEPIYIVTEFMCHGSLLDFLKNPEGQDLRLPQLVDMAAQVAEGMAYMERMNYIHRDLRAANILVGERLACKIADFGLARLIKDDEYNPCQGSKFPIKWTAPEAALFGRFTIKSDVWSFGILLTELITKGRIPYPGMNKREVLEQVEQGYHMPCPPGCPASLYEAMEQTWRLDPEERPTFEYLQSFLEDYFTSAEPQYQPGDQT
# Test summary: in vitro Fgr tyrosine kinase inhibition
# Assay type: biochemical
# Condition description: 1 uM compound; read-out: % inhibition against Fgr
Parameter: inhibition at 1 µM

Look over these answered cases.
>  <Structure as smiles>
Oc1cccc(Nc2ncnc3cc(-c4ccc(CNC5CC5)cc4)sc23)c1

>  <inhibition at 1 µM>
> 80%

$$$$
>  <Structure as smiles>
CC(C)CNCc1cccc(-c2cc3ncnc(Nc4cccc(O)c4)c3s2)c1.Cl

>  <inhibition at 1 µM>
> 80%

$$$$

Field: inhibition at 1 µM. Fill in for each record below.
1. Oc1cccc(Nc2ncnc3cc(-c4ccoc4)sc23)c1
2. CCNCc1cccc(-c2cc3nccc(Nc4cccc(O)c4)c3s2)c1
3. Oc1cccc(Nc2ncnc3cc(-c4ccc(CN5CCCCC5)s4)sc23)c1
4. Oc1cccc(Nc2ncnc3cc(-c4ccc(CN5CCCCC5)o4)sc23)c1
5. CN1CCN(C(=O)Cc2ccc(-c3cc4ncnc(Nc5cccc(O)c5)c4s3)cc2)CC1

["> 50%", "> 80%", "> 60%", "> 70%", "> 30%"]

Field: inhibition at 1 µM. Fill in for each record below.
1. Oc1cccc(Nc2ncnc3cc(-c4ccc(Cl)cc4)sc23)c1
2. CCNCc1ccc(-c2cc3ncnc(Nc4cccc(O)c4)c3s2)cc1
3. Oc1cccc(Nc2ncnc3cc(-c4cc(CN5CCCCC5)cs4)sc23)c1
4. COc1cccc(Nc2ncnc3cc(-c4ccc(OCCc5ccccn5)cc4)sc23)c1
5. CN1CCN(Cc2cccc(-c3cc4ncnc(Nc5cccc(O)c5)c4s3)c2)CC1.Cl
6. O=C(Cc1ccc(-c2cc3ncnc(Nc4cccc(O)c4)c3s2)cc1)N1CCCC1
7. Oc1cccc(Nc2ncnc3cc(-c4ccc(OCCN5CCOCC5)cc4)sc23)c1

1: > 60%; 2: > 80%; 3: > 50%; 4: > 60%; 5: > 80%; 6: > 40%; 7: > 70%

* * *

# Tested system: Hck tyrosine kinase (Homo sapiens (Human), UniProt P08631)
# Sequence (P08631 whole entry): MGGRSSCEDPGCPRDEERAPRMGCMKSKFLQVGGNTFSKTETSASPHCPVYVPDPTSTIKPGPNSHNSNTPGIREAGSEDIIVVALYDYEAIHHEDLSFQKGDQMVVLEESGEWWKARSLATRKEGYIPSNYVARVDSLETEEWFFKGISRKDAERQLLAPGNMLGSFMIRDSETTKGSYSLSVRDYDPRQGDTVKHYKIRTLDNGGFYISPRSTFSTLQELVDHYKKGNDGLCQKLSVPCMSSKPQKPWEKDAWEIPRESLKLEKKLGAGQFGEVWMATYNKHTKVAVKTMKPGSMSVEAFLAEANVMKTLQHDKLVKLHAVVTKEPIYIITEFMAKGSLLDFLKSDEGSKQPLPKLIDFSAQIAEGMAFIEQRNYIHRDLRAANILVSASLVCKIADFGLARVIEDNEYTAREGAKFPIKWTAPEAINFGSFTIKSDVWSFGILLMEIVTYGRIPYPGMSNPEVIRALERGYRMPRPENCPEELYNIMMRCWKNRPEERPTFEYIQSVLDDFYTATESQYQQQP
# Test summary: in vitro Hck tyrosine kinase inhibition
# Format: biochemical
# Condition description: 1 uM compound; read-out: % inhibition against Hck
Exercise: for every item that follows, state its recorded inhibition at 1 µM.

Look over these answered cases.
>  <Compound>
Oc1cccc(Nc2ccnc3cc(-c4ccc(CN5CCNCC5)cc4)sc23)c1 [LCB 03-0098]

>  <inhibition at 1 µM>
> 30%

$$$$
>  <Compound>
CC(C)CNCc1ccc(-c2cc3ncnc(Nc4cccc(O)c4)c3s2)cc1 [LCB 03-0041]

>  <inhibition at 1 µM>
> 80%

$$$$
>  <Compound>
COc1cccc(Nc2ncnc3cc(-c4ccc(OCCN5CCCC5)cc4)sc23)c1 [LCB 03-0026]

>  <inhibition at 1 µM>
> 60%

$$$$

Field: inhibition at 1 µM. Fill in for each record below.
1. C[C@@H]1CCC[C@H](C)N1Cc1ccc(-c2cc3ncnc(Nc4cccc(O)c4)c3s2)cc1.Cl [LCB 03-0059]
2. CN1CCN(Cc2csc(-c3cc4ncnc(Nc5cccc(O)c5)c4s3)c2)CC1 [LCB 03-0102]
3. COc1cccc(Nc2ncnc3cc(-c4ccsc4)sc23)c1 [LCB 03-0028]
4. CC(CO)NC(=O)c1ccc(-c2cc3ncnc(Nc4cccc(O)c4)c3s2)cc1 (stereo not shown) [LCB 03-0074]

["> 50%", "> 60%", "> 30%", "> 30%"]

* * *

# Test system: oxazolone-induced skin inflammation of Balb/C mouse ears
# Test summary: mouse skin inflammatory model induced by oxazolone (ear thickness)
# Assay type: in vivo
# Condition description: 20 ul of 0.1% compound topical on ear, 36 hours after oxazolone
Parameter: Inhibition (%) of increase of ear thickness
Answers are plain numbers, in %.

>  <Compound>
Cl.Oc1cccc(Nc2ncnc3cc(-c4cccc(CN5CCCC5)c4)sc23)c1 [LCB 03-0062]

>  <Tested system>
oxazolone-induced skin inflammation of Balb/C mouse ears

>  <Numeric value>
57

$$$$

Field: Inhibition (%) of increase of ear thickness. Fill in for each record below.
1. Cl.OCCNCc1ccc(-c2cc3ncnc(Nc4cccc(O)c4)c3s2)cc1 [LCB 03-0070]
2. CC(C)CNCc1cccc(-c2cc3ncnc(Nc4cccc(O)c4)c3s2)c1.Cl [LCB 03-0067]
3. Cl.Oc1cccc(Nc2ncnc3cc(-c4cccc(CN5CCCCC5)c4)sc23)c1 [LCB 03-0060]

[55, 54, 66]

* * *

# Tested system: UniProtKB P12931
# Sequence (P12931 whole entry, looked up): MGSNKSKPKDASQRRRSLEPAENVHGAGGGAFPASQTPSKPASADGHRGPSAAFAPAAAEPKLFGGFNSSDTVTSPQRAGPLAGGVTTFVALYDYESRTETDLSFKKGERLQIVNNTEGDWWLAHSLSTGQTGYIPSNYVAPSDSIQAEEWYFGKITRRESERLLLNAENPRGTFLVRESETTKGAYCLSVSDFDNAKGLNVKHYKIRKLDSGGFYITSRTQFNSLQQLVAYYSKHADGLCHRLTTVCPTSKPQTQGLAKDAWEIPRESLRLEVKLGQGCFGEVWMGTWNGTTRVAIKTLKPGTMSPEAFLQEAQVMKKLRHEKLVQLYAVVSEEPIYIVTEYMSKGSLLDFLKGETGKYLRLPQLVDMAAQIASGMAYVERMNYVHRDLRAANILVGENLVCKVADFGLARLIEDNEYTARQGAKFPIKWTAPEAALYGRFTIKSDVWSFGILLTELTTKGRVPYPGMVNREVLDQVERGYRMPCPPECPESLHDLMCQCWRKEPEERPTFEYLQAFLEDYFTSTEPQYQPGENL
# Test summary: in vitro c-Src tyrosine kinase inhibition (32P-ATP, poly(D4Y)n substrate)
# Assay type: biochemical
# Condition description: 1 uM compound; read-out: % inhibition against c-Src
Parameter: inhibition at 1 µM

>  <Compound>
CCNCc1cccc(-c2cc3nccc(Nc4cccc(O)c4)c3s2)c1 [LCB 03-0112]

>  <Tested system>
UniProtKB P12931

>  <inhibition at 1 µM>
> 80%

$$$$
>  <Compound>
Cl.Oc1cccc(Nc2ncnc3cc(-c4cccc(CN5CCNCC5)c4)sc23)c1 [LCB 03-0064]

>  <Tested system>
UniProtKB P12931

>  <inhibition at 1 µM>
> 80%

$$$$
>  <Compound>
COc1cccc(Nc2ncnc3cc(-c4ccc(OCCc5ccccn5)cc4)sc23)c1 [LCB 03-0022]

>  <Tested system>
UniProtKB P12931

>  <inhibition at 1 µM>
> 60%

$$$$
>  <Compound>
Oc1cccc(Nc2ncnc3cc(-c4ccc(CN5CCCC5)s4)sc23)c1 [LCB 03-0085]

>  <Tested system>
UniProtKB P12931

>  <inhibition at 1 µM>
> 70%

$$$$

Alright, here's another compound for you.
Supply inhibition at 1 µM value. Item: CCNCc1csc(-c2cc3ncnc(Nc4cccc(O)c4)c3s2)c1 [LCB 03-0106]
> 70%

* * *

Exercise: for every item that follows, state its recorded inhibition at 1 µM.
# Tested system: DDR1 tyrosine kinase (Homo sapiens (Human), UniProt Q08345)
# Sequence (Q08345 610-905): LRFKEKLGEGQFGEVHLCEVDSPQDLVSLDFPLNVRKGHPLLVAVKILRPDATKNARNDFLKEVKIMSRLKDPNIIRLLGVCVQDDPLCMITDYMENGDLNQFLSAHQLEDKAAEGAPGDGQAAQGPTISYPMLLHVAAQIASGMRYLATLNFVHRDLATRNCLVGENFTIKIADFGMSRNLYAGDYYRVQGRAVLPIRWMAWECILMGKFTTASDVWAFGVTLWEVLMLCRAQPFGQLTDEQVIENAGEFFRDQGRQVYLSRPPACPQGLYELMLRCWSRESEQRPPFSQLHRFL
# Test summary: in vitro DDR1 tyrosine kinase inhibition (GST-fused kinase domain)
# Type: biochemical
# Condition description: 1 uM compound; read-out: % inhibition against DDR1

Look over these answered cases.
>  <Compound>
CN1CCN(C(=O)c2cccc(-c3cc4ncnc(Nc5cccc(O)c5)c4s3)c2)CC1

>  <Tested system>
DDR1 tyrosine kinase (Homo sapiens (Human), UniProt Q08345)

>  <Result>
> 80%

$$$$
>  <Compound>
Oc1cccc(Nc2ncnc3cc(-c4ccc(CCN5CCOCC5)cc4)sc23)c1

>  <Tested system>
DDR1 tyrosine kinase (Homo sapiens (Human), UniProt Q08345)

>  <Result>
> 80%

$$$$
>  <Compound>
OCC1CCCN1Cc1ccc(-c2cc3ncnc(Nc4cccc(O)c4)c3s2)cc1 (stereo not drawn)

>  <Tested system>
DDR1 tyrosine kinase (Homo sapiens (Human), UniProt Q08345)

>  <Result>
> 80%

$$$$
>  <Compound>
CCN(CC)Cc1ccc(-c2cc3ncnc(Nc4cccc(O)c4)c3s2)cc1

>  <Tested system>
DDR1 tyrosine kinase (Homo sapiens (Human), UniProt Q08345)

>  <Result>
> 80%

$$$$
>  <Compound>
COc1cccc(Nc2ncnc3cc(-c4cccs4)sc23)c1

>  <Tested system>
DDR1 tyrosine kinase (Homo sapiens (Human), UniProt Q08345)

>  <Result>
> 70%

$$$$

Field: inhibition at 1 µM. Fill in for each record below.
1. Oc1cccc(Nc2ccnc3cc(-c4ccc(CN5CCOCC5)cc4)sc23)c1
2. COc1cccc(Nc2ncnc3cc(-c4ccco4)sc23)c1
3. Oc1cccc(Nc2ncnc3cc(-c4ccc(CNC5CC5)cc4)sc23)c1
4. CCN(CC)C(=O)c1cccc(-c2cc3ncnc(Nc4cccc(O)c4)c3s2)c1

> 80%
> 60%
> 80%
> 80%
